# system tested: STAT6 (Homo sapiens, UniProt P42226)
# Construct: stably transfected HaCaT keratinocyte cell line, which expresses NanoLuc luciferase reporter gene under the transcriptional control of the STAT6 responsive promoter; endogenous in cells; host or cells: HaCaT keratinocyte reporter cell line (stably transfected with a NanoLuc reporter)
# Sequence (P42226 whole entry): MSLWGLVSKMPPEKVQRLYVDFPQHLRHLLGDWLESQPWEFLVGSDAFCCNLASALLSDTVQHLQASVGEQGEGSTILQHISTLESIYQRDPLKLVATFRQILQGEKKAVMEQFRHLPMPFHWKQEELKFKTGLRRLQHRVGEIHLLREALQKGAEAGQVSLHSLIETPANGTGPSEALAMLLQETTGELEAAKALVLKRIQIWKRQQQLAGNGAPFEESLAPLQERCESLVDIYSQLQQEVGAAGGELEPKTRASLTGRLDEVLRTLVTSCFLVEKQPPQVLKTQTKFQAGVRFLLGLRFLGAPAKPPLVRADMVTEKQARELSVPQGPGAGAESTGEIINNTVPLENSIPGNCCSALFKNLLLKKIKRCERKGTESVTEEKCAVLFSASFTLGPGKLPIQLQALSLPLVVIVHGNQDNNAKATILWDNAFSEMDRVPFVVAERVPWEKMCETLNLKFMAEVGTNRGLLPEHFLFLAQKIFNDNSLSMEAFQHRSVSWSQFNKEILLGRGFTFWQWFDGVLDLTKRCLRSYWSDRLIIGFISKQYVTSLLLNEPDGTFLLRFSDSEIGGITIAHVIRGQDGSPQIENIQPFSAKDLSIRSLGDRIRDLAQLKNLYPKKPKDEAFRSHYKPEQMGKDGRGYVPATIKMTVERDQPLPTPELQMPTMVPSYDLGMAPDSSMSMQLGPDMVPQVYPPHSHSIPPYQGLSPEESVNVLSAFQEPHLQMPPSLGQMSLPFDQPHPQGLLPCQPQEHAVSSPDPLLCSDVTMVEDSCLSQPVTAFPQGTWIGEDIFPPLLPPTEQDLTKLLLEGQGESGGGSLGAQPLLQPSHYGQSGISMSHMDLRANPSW
# assay comment: STAT6 Reporter Luciferase Assay (IL-13 stimulated HaCaT keratinocyte NanoLuc reporter cells)
# Format: cell-based
# condition description: IL-13 stimulated HaCaT STAT6 NanoLuc reporter cells; read-out: Reporter EC50
measurement type: EC50 (nM)
Give a bare numeral; the unit nM is implied.

Here is how some compounds turned out for EC50.
CC(C)n1nc(C(=O)NCc2ccc(NC(N)=O)cc2)c2c1[C@@H](C)CN(c1ccc(-c3nccn3C)cn1)C2 | 1
CC(C)n1nc(C(=O)NCc2ccc(NC(=O)N(C)C)cc2)c2c1[C@@H](C)CN(c1ccc(C(=O)N(C)CC3CCN(Cc4ccccc4)CC3)cc1)C2 | 3
CNC(=O)Nc1ccc(CNC(=O)c2nn(C(C)C)c3c2CN(c2ccc(-n4c(C)nn(C)c4=O)cn2)C[C@@H]3C)cc1 | 2
CC(C)n1nc(C(=O)NCc2ccc(NC(=O)N3CC[C@@H](N(C)C)C3)cc2)c2c1[C@@H](C)CN(c1ccc(C(=O)N(C)C)cc1)C2 | 1
CC(C)n1nc(C(=O)NCc2ccc(NC(=O)N(C)C)cc2)c2c1C(C(F)(F)F)CN(c1ncc(C(=O)N(C)C)cn1)C2 (single isomer, unassigned) [Example 461] | 0.2

So for CC(C)n1nc(C(=O)NCc2ccc(NC(=O)N3CC[C@@H](CN(C)C)C3)cc2)c2c1[C@@H](C)CN(c1ccc(C(=O)N(C)C)cc1)C2 , the logged EC50 turned out to be 1

----------
Reported EC50 values follow for various molecules
# system tested: STAT6 (Homo sapiens)
# Construct: stably transfected HaCaT keratinocyte cell line, which expresses NanoLuc luciferase reporter gene under the transcriptional control of the STAT6 responsive promoter; endogenous in cells; host or cells: HaCaT keratinocyte reporter cell line (stably transfected with a NanoLuc reporter)
# assay comment: STAT6 Reporter Luciferase Assay (IL-13 stimulated HaCaT keratinocyte NanoLuc reporter cells)
# Assay type: cell-based
# condition description: IL-13 stimulated HaCaT STAT6 NanoLuc reporter cells; read-out: Reporter EC50
Form entry: value (nM) — number only.

Known EC50 results, listed for orientation:
CCc1nc(C(=O)NCc2ccc(NC(=O)N(C)C)cc2)c2n1C(C)CN(c1ccc(C(=O)N(C)C)cc1)C2 (single isomer, unassigned) [Example 429] | 1
CC(C)n1nc(C(=O)NCc2ccc(NC(=O)N(C)C)cc2)c2c1CCN(c1ccc(C(=O)N3CCC[C@@H]3C(N)=O)cn1)C2 | 2380

Now look at this entry.
Given the molecule CCn1nc(C(=O)NCc2ccc(-c3ncc[nH]3)cc2)c2c1[C@@H](C)CN(c1ccc(C(=O)N(C)C)cn1)C2 and test system STAT6 (Homo sapiens), the measured EC50 is 2

----------
# system tested: STAT6 (Homo sapiens)
# Construct: stably transfected HaCaT keratinocyte cell line, which expresses NanoLuc luciferase reporter gene under the transcriptional control of the STAT6 responsive promoter; endogenous in cells; host or cells: HaCaT keratinocyte reporter cell line (stably transfected with a NanoLuc reporter)
# assay comment: STAT6 Reporter Luciferase Assay (IL-13 stimulated HaCaT keratinocyte NanoLuc reporter cells)
# Assay type: cell-based
# condition description: IL-13 stimulated HaCaT STAT6 NanoLuc reporter cells; read-out: Reporter EC50
Returns: string. Value is yes (1) if measured EC50 is below 5 nM, and no (0) if it is greater than or equal to it.

Below, 6 molecules whose answers are already recorded.
CC(C1CC1)n1nc(C(=O)NCc2ccc(NC(=O)N(C)C)cc2)c2c1CCN(c1ccc(C(=O)N(C)C)cn1)C2 (single isomer, unassigned) | no (0)
CC(C)n1nc(C(=O)NCc2ccc(NC(=O)N(C)CC(F)F)cc2)c2c1[C@@H](C)CN(c1ccc(C(=O)N(C)C)cn1)C2 | yes (1)
COc1nccc2c1CN(C(=O)c1ccc(N3CCc4c(c(C(=O)NCc5ccc(NC(=O)N(C)C)cc5)nn4C(C)C)C3)nc1)CC2 | no (0)
CC(C)n1nc(C(=O)NCc2ccc(NC(=O)N(C)C)cc2)c2c1CCN(c1ccc(C(=O)N3CCc4ncccc4C3)cn1)C2 | no (0)
CC(C)n1nc(C(=O)NCc2ccc(NC(=O)N3CCN(C)CC3)cc2)c2c1C(C(F)(F)F)CN(c1ccc(C(=O)N(C)C)cc1)C2 (single isomer, unassigned) [Example 705] | yes (1)
CC(C)n1nc(C(=O)NCc2ccc(NC(=O)N(C)C)cc2)c2c1CCN(c1ccc(C(=O)N3CCC4(CCC(=O)N4C)CC3)cn1)C2 | no (0)

### Prompt # strict comparison: is reported EC50 < 5 nM? input = Cc1cccc(-c2ccc(CNC(=O)c3nn(C(C)C)c4c3CN(c3ccc(C(=O)N(C)C)cc3)C[C@@H]4C)cc2)n1
### Response no (0)

### Prompt Answer whether the molecule CN(C)C(=O)Nc1ccc(CNC(=O)c2nn(C)c3c2[C@H]2CCC[C@@H](C3)N2c2ccc(C(=O)N(C)C)cn2)cc1 (single isomer, unassigned) [Example 275] has EC50 strictly less than 5 nM
### Response no (0)

### Prompt Below 5 nM on EC50? Entry CC(C)n1nc(C(=O)NCc2ccc(NC(=O)N3CCN(C)CC3)cc2)c2c1[C@@H](C)CN(c1ccc(-c3nncn3C3CC3)cn1)C2
### Response yes (1)

### Prompt Determine if CCn1nc(C(=O)NCc2ccc(C(=O)NC)cc2)c2c1C(C(F)(F)F)CN(c1ccc(C(=O)N(C)C)cn1)C2 (single isomer, unassigned) [Example 468] shows EC50 strictly lower than 5 nM.
### Response yes (1)

### Prompt Strictly below 5 nM in EC50? CC(C)n1nc(C(=O)NCc2ccc(NC(=O)NCC(F)F)cc2)c2c1[C@@H](C)CN(c1ccc(C(=O)N(C)C)cn1)C2
### Response yes (1)

### Prompt Is EC50 strictly under 5 nM for the entry CC(C)n1nc(C(=O)NCc2ccc(NC(=O)N(C)C)cc2)c2c1[C@@H](C)[C@H](C)N(c1ncc(C(=O)N(C)C)cn1)C2 (single isomer, unassigned) ?
### Response yes (1)

### Prompt Consider the molecule CC(C)n1nc(C(=O)NCc2ccc(NC(=O)N3CCC4(CC3)CCN4C)c(F)c2)c2c1[C@@H](C)CN(c1ccc(C(=O)N(C)C)cc1)C2 . Is its EC50 strictly less than 5 nM?
### Response yes (1)

### Prompt # check: EC50 < 5 nM for CC(C)n1nc(C(=O)NCc2ccc(NC(=O)N(C)C)cc2)c2c1CCN(c1ccc(C(=O)N3CCc4nn(C)cc4C3)cn1)C2
### Response no (0)

### Prompt API: query returns whether the molecule falls strictly under 5 nM in EC50. Query: CC(C)n1nc(C(=O)NCc2ccc(-c3ncc[nH]3)cc2)c2c1C[C@H](C)N(c1ccc(C(=O)N(C)C)cn1)C2
### Response yes (1)

### Prompt Please indicate whether the reported EC50 of CC(C)n1nc(C(=O)NCc2ccc(NC(=O)N3CC[C@@H](N(C)C)C3)c(F)c2)c2c1[C@@H](C)CN(c1ccc(C(=O)N(C)C)cc1)C2 is strictly below 5 nM.
### Response yes (1)

### Prompt Determine whether this molecule shows EC50 lower than 5 nM (ties excluded): CC(C)n1nc(C(=O)NCc2ccc(NC(=O)N3CCC(CC4CCNCC4)CC3)cc2)c2c1[C@@H](C)CN(c1ccc(C(=O)N(C)C)cc1)C2
### Response yes (1)

### Prompt Report whether reported EC50 is lower than 5 nM (strictly) for Cc1ncc2n1CCN(C(=O)c1ccc(N3CCc4c(c(C(=O)NCc5ccc(NC(=O)N(C)C)cc5)nn4C(C)C)C3)nc1)C2
### Response no (0)

----------
# system tested: STAT6 (Homo sapiens, UniProt P42226)
# Construct: stably transfected HaCaT keratinocyte cell line, which expresses NanoLuc luciferase reporter gene under the transcriptional control of the STAT6 responsive promoter; endogenous in cells; host or cells: HaCaT keratinocyte reporter cell line (stably transfected with a NanoLuc reporter)
# assay comment: STAT6 Reporter Luciferase Assay (IL-13 stimulated HaCaT keratinocyte NanoLuc reporter cells)
# Assay type: cell-based
# condition description: IL-13 stimulated HaCaT STAT6 NanoLuc reporter cells; read-out: Reporter EC50
Criterion: EC50 strictly less than 3 nM. Met: criterion met. Not met: criterion not met.

### Prompt Quick check: does COC[C@H]1CN(C(=O)Nc2ccc(CNC(=O)c3nn(C(C)C)c4c3CN(c3ccc(C(=O)N(C)C)cc3)C[C@@H]4C)cc2)CCN1 [Example 577] have EC50 under 3 nM?
### Response criterion met

### Prompt EC50 strictly < 3 nM for this compound? CC(C)n1nc(C(=O)NCc2ccc(NC(=O)N3CCN(C)CC3)c(F)c2)c2c1[C@@H](C)CN(c1ccc(C(=O)N(C)C)cn1)C2 [Example 606]
### Response criterion met

### Prompt I'd appreciate it if you could check whether CN(C)C(=O)Nc1ccc(CNC(=O)c2nn(CC3CCC3)c3c2CN(c2ccc(C(=O)N(C)C)cn2)CC3)cc1 [Example 257] has EC50 smaller than 3 nM.
### Response criterion not met

### Prompt Regarding CNC(=O)c1ccc(CNC(=O)c2nn(C(C)C)c3c2CN(c2ncc(C(=O)N4Cc5cccnc5C4)cn2)C[C@@H]3C)cc1 [Example 496] , kindly confirm whether its EC50 is beneath 3 nM.
### Response criterion not met

### Prompt Consider the compound CNC(=O)[C@@H]1CCCN1C(=O)c1ccc(N2CCc3c(c(C(=O)NCc4ccc(NC(=O)N(C)C)cc4)nn3C(C)C)C2)nc1 [Example 222] . Is its EC50 strictly less than 3 nM?
### Response criterion not met
